I'd appreciate it if you could supply PKB-kinase (spa) Assay 1, % inhibition of kinase activity values for the items below.
# testedTarget: PKB (Homo sapiens, UniProt P31749)
# Construct: His; HA; made in house
# Sequence (P31749 whole entry, species assumed): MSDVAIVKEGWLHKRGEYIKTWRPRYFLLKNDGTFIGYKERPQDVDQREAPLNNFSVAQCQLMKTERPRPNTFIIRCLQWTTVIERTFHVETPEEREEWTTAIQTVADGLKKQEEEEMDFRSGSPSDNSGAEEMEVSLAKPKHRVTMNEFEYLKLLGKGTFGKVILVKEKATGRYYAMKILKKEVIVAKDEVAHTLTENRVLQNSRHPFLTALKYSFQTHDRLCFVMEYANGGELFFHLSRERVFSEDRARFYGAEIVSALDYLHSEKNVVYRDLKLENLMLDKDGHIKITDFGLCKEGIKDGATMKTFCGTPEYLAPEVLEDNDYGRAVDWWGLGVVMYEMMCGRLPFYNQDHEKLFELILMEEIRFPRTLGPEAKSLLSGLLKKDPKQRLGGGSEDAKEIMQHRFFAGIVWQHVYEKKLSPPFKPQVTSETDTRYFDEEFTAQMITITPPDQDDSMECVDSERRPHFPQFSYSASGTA
# assayInfo: PKB in vitro kinase activity assay (soluble His-HA-PKB / SPA bead screening)
# Format: biochemical
# settings: 1 μM compound concentration, Assay 1
Where no end group is shown, it is not given here. Side-chain parts run from the residue outwards. [ ]: non-standard residue; d: D form. The star is where a group is joined. X1 = 5‑aminoethylsulfonamide isoquinoline, O=S(=O)(NCCN*)c1cccc2cnccc12; hLeu = CC(C)CC[C@H](N)C(=O)O; Nle = CCCC[C@H](N)C(=O)O; Orn = NCCC[C@H](N)C(=O)O; Dab = NCC[C@H](N)C(=O)O; Nva = CCC[C@H](N)C(=O)O; Abu = CC[C@H](N)C(=O)O; βAla = NCCC(=O)O
Supply the numeric figure in %, leaving out any unit text.

May I ask what PKB-kinase (spa) Assay 1, % inhibition of kinase activity has been recorded for 60020-89: Arg-Pro-Arg-Nle-Glu(bAla-5-aminoethylsulfonamide isoquinoline)-Dab-Phe (RPR[Nle]E([βAla-X1])[Dab]F) ? 8

May I ask what PKB-kinase (spa) Assay 1, % inhibition of kinase activity has been recorded for 60020-18: Arg-Pro-Arg-Abu-Glu(5-aminoethylsulfonamide isoquinoline)-Dab-Hol (RPR[Abu]E(X1)[Dab][hLeu]) ? 18

May I ask what PKB-kinase (spa) Assay 1, % inhibition of kinase activity has been recorded for 60020-92: Arg-Pro-Arg-Nle-Glu(bAla-5-aminoethylsulfonamide isoquinoline)-Orn-Hol (RPR[Nle]E([βAla-X1])[Orn][hLeu]) ? 40

May I ask what PKB-kinase (spa) Assay 1, % inhibition of kinase activity has been recorded for 60020-29: Arg-Pro-Arg-Nle-Glu(5-aminoethylsulfonamide isoquinoline)-Ala-Phe (RPR[Nle]E(X1)AF) ? 19

May I ask what PKB-kinase (spa) Assay 1, % inhibition of kinase activity has been recorded for 60020-52: Arg-Pro-Arg-Abu-Glu(Gly-5-aminoethylsulfonamide isoquinoline)-Orn-Hol (RPR[Abu]E([Gly-X1])[Orn][hLeu]) ? 56

May I ask what PKB-kinase (spa) Assay 1, % inhibition of kinase activity has been recorded for 60020-32: Arg-Pro-Arg-Nle-Glu(5-aminoethylsulfonamide isoquinoline)-Nva-Hol (RPR[Nle]E(X1)[Nva][hLeu]) ? 12

* * *

# testedTarget: PKB (Homo sapiens)
# Construct: His; HA; made in house
# assayInfo: PKB in vitro kinase activity assay (soluble His-HA-PKB / SPA bead screening)
# Type: biochemical
# settings: 1 μM compound concentration, Assay 1
Where no end group is shown, it is not given here. Side-chain parts run from the residue outwards. [ ]: non-standard residue; d: D form. The star is where a group is joined. X1 = 5‑aminoethylsulfonamide isoquinoline, O=S(=O)(NCCN*)c1cccc2cnccc12; hLeu = CC(C)CC[C@H](N)C(=O)O; Nle = CCCC[C@H](N)C(=O)O; Orn = NCCC[C@H](N)C(=O)O; Nva = CCC[C@H](N)C(=O)O; Abu = CC[C@H](N)C(=O)O; Dap = NC[C@H](N)C(=O)O; βAla = NCCC(=O)O
I'd appreciate it if you could supply PKB-kinase (spa) Assay 1, % inhibition of kinase activity values for the items below.
Supply the numeric figure in %, leaving out any unit text.

May I ask what PKB-kinase (spa) Assay 1, % inhibition of kinase activity has been recorded for 60020-88: Arg-Pro-Arg-Abu-Glu(bAla-5-aminoethylsulfonamide isoquinoline)-Nva-Hol (RPR[Abu]E([βAla-X1])[Nva][hLeu]) ? −50

May I ask what PKB-kinase (spa) Assay 1, % inhibition of kinase activity has been recorded for 60020-93: Arg-Pro-Arg-Nle-Glu(bAla-5-aminoethylsulfonamide isoquinoline)-Ala-Phe (RPR[Nle]E([βAla-X1])AF) ? −12

May I ask what PKB-kinase (spa) Assay 1, % inhibition of kinase activity has been recorded for 60020-60: Arg-Pro-Arg-Nle-Glu(Gly-5-aminoethylsulfonamide isoquinoline)-Orn-Hol (RPR[Nle]E([Gly-X1])[Orn][hLeu]) ? 59

May I ask what PKB-kinase (spa) Assay 1, % inhibition of kinase activity has been recorded for 60020-72: Arg-Pro-Arg-Dap-Glu(bAla-5-aminoethylsulfonamide isoquinoline)-Nva-Hol (RPR[Dap]E([βAla-X1])[Nva][hLeu]) ? 31

May I ask what PKB-kinase (spa) Assay 1, % inhibition of kinase activity has been recorded for 60020-8: Arg-Pro-Arg-Dap-Glu(5-aminoethylsulfonamide isoquinoline)-Nva-Hol (RPR[Dap]E(X1)[Nva][hLeu]) ? 18

May I ask what PKB-kinase (spa) Assay 1, % inhibition of kinase activity has been recorded for 60020-71: Arg-Pro-Arg-Dap-Glu(bAla-5-aminoethylsulfonamide isoquinoline)-Nva-Phe (RPR[Dap]E([βAla-X1])[Nva]F) ? 32

* * *

I'd appreciate it if you could supply IC50 values for the items below.
# testedTarget: PKB (Homo sapiens)
# Construct: His; HA; made in house
# assayInfo: PKB in vitro kinase activity assay (soluble His-HA-PKB / SPA bead screening)
# Format: biochemical
# settings: Table 6, most active compounds from plate TY-60020; read-out: IC50 PKB
*1 amine or outer side, *2 acyl side, *3 side chain or, on linkers, in order; H or OH if unused. Where a SMILES comes first, the peptide text is derived from it. Side-chain parts run from the residue outwards. [ ]: non-standard residue; d: D form. The star is where a group is joined. Isoquinoline5sulfonyl = O=S(=O)(c1cccc2cnccc12)*; Ethylenediamine = C(CN[*:2])N[*:1]; hLeu = CC(C)CC[C@H](N)C(=O)O; Nle = CCCC[C@H](N)C(=O)O; Orn = NCCC[C@H](N)C(=O)O; Nva = CCC[C@H](N)C(=O)O; Dap = NC[C@H](N)C(=O)O; βAla = NCCC(=O)O
Supply the numeric figure in nM, leaving out any unit text.

May I ask what IC50 has been recorded for CC(C)CC[C@H](NC(=O)[C@H](CCCN)NC(=O)[C@H](CCC(=O)NCCC(=O)NCCNS(=O)(=O)c1cccc2cnccc12)NC(=O)[C@H](CN)NC(=O)[C@H](CCCNC(=N)N)NC(=O)[C@@H]1CCCN1C(=O)[C@@H](N)CCCNC(=N)N)C(N)=O [60020-68] (H-RPR[Dap]E([βAla-Ethylenediamine-Isoquinoline5sulfonyl])[Orn][hLeu]-NH2; N-terminus assumed) ? 500

May I ask what IC50 has been recorded for CCCC[C@H](NC(=O)[C@H](CCCNC(=N)N)NC(=O)[C@@H]1CCCN1C(=O)[C@@H](N)CCCNC(=N)N)C(=O)N[C@@H](CCC(=O)NCCC(=O)NCCNS(=O)(=O)c1cccc2cnccc12)C(=O)N[C@@H](CCC)C(=O)N[C@@H](Cc1ccccc1)C(N)=O [60020-95] (H-RPR[Nle]E([βAla-Ethylenediamine-Isoquinoline5sulfonyl])[Nva]F-NH2; N-terminus assumed) ? 3300

May I ask what IC50 has been recorded for CCCC[C@H](NC(=O)[C@H](CCCNC(=N)N)NC(=O)[C@@H]1CCCN1C(=O)[C@@H](N)CCCNC(=N)N)C(=O)N[C@@H](CCC(=O)NCC(=O)NCCNS(=O)(=O)c1cccc2cnccc12)C(=O)N[C@@H](CCCN)C(=O)N[C@@H](Cc1ccccc1)C(N)=O [60020-59] (H-RPR[Nle]E([Gly-Ethylenediamine-Isoquinoline5sulfonyl])[Orn]F-NH2; N-terminus assumed) ? 300

May I ask what IC50 has been recorded for N=C(N)NCCC[C@H](NC(=O)[C@@H]1CCCN1C(=O)[C@@H](N)CCCNC(=N)N)C(=O)N[C@@H](CN)C(=O)N[C@@H](CCC(=O)NCCC(=O)NCCNS(=O)(=O)c1cccc2cnccc12)C(=O)N[C@@H](CCCN)C(=O)N[C@@H](Cc1ccccc1)C(N)=O [60020-67] (H-RPR[Dap]E([βAla-Ethylenediamine-Isoquinoline5sulfonyl])[Orn]F-NH2; N-terminus assumed) ? 1080

* * *

# testedTarget: PKB (Homo sapiens, UniProt P31749)
# Construct: His; HA; made in house
# assayInfo: PKB in vitro kinase activity assay (soluble His-HA-PKB / SPA bead screening)
# Assay type: biochemical
# settings: chimeric PTR compounds (peptide conjugated to isoquinoline small molecule); read-out: PKB IC50
pIC50: −log10 of the molar value. *1 amine or outer side, *2 acyl side, *3 side chain or, on linkers, in order; H or OH if unused. Where a SMILES comes first, the peptide text is derived from it. Side-chain parts run from the residue outwards. [ ]: non-standard residue; d: D form. The star is where a group is joined. Isoquinoline5sulfonyl = O=S(=O)(c1cccc2cnccc12)*; X3 = O=C(OC[C@H](Cc1ccccc1)N[*:1])[*:2]; Ethylenediamine = C(CN[*:2])N[*:1]; hLeu = CC(C)CC[C@H](N)C(=O)O; Nle = CCCC[C@H](N)C(=O)O; Dab = NCC[C@H](N)C(=O)O; Nva = CCC[C@H](N)C(=O)O; Abu = CC[C@H](N)C(=O)O; βAla = NCCC(=O)O
Threshold check on pIC50: at or above 5 gives TRUE, strictly below gives FALSE.

Reported pIC50 reaches at least 5 for C[C@@H](O)[C@H](NC(=O)[C@H](CCCNC(=N)N)NC(=O)[C@@H]1CCCN1C(=O)[C@@H](N)CCCNC(=N)N)C(=O)N[C@@H](CO)C(=O)N[C@@H](CCC(=O)NCCNS(=O)(=O)c1cccc2cnccc12)C(=O)N[C@@H](Cc1ccccc1)C(N)=O [compound 6014] (H-RPRTSE([Ethylenediamine-Isoquinoline5sulfonyl])F-NH2) ? FALSE

Reported pIC50 reaches at least 5 for C[C@@H](O)[C@H](NC(=O)[C@H](CCCNC(=N)N)NC(=O)[C@@H]1CCCN1C(=O)[C@@H](N)CCCNC(=N)N)C(=O)N[C@@H](CCC(=O)NCCC(=O)NCCNS(=O)(=O)c1cccc2cnccc12)C(=O)N[C@@H](CO)C(=O)N[C@@H](Cc1ccccc1)C(N)=O [compound 6082] (H-RPRTE([βAla-Ethylenediamine-Isoquinoline5sulfonyl])SF-NH2; N-terminus assumed) ? TRUE

Reported pIC50 reaches at least 5 for CCCC[C@H](NC(=O)[C@H](CCCNC(=N)N)NC(=O)[C@@H]1CCCN1C(=O)[C@@H](N)CCCNC(=N)N)C(=O)N[C@@H](CCC(=O)NCCC(=O)NCCNS(=O)(=O)c1cccc2cnccc12)C(=O)N[C@@H](CO)C(=O)N[C@@H](Cc1ccccc1)C(N)=O ? TRUE

Reported pIC50 reaches at least 5 for CC[C@H](NC(=O)[C@H](CO)NC(=O)[C@@H](NC(=O)[C@H](CCCNC(=N)N)NC(=O)[C@@H]1CCCN1C(=O)[C@@H](N)CCCNC(=N)N)[C@@H](C)O)C(=O)N[C@H](COC(=O)NCCNS(=O)(=O)c1cccc2cnccc12)Cc1ccccc1 [compound 6013] (H-RPRTS[Abu][X3]-{Ethylenediamine-Isoquinoline5sulfonyl}) ? TRUE

Reported pIC50 reaches at least 5 for CCCC[C@H](NC(=O)[C@H](CCCNC(=N)N)NC(=O)[C@@H]1CCCN1C(=O)[C@@H](N)CCCNC(=N)N)C(=O)N[C@@H](CCC(=O)NCCC(=O)NCCNS(=O)(=O)c1cccc2cnccc12)C(=O)N[C@@H](CCN)C(=O)N[C@@H](Cc1ccccc1)C(N)=O [compound 6140] (H-RPR[Nle]E([βAla-Ethylenediamine-Isoquinoline5sulfonyl])[Dab]F-NH2; N-terminus assumed) ? TRUE

Reported pIC50 reaches at least 5 for CCC[C@H](NC(=O)[C@H](CCCNC(=N)N)NC(=O)[C@@H]1CCCN1C(=O)[C@@H](N)CCCNC(=N)N)C(=O)N[C@@H](CCC(=O)NCCNS(=O)(=O)c1cccc2cnccc12)C(=O)N[C@@H](C)C(=O)N[C@@H](CCC(C)C)C(N)=O [compound 6150] (H-RPR[Nva]E([Ethylenediamine-Isoquinoline5sulfonyl])A[hLeu]-NH2; N-terminus assumed) ? FALSE

These data points were gathered from patent US7407939B2.
